Tested on: Ribosome
protocol: Induction of ribosome to readthrough in-frame UGA codon of renilla/firefly CFTR W1282X nonsense mutant gene transfected in rabbit reticulocyte assessed as reduction in overall translation at 5 to 20 uM […] dual-luciferase reporter gene assay
Assay type: subcellular
condition: Oryctolagus cuniculus
recorded metric: inhibition (%)
Answer format: numeric, % implied, no suffix.

cpd smiles	assayed system	inhibition / %
C[C@H](O)[C@H]1O[C@H](O[C@H]2[C@H](O[C@@H]3O[C@H](CN)[C@@H](O)[C@H]3O)[C@@H](O)[C@H](NC(=O)[C@@H](O)CCN)C[C@@H]2N)[C@H](N)[C@@H](O)[C@@H]1O	Ribosome	50
NC[C@H]1O[C@@H](O[C@@H]2[C@@H](O)[C@H](N)C[C@H](N)[C@H]2O[C@H]2O[C@H](CO)[C@@H](O)[C@H](O)[C@H]2N)[C@H](O)[C@@H]1O	Ribosome	10
C[C@H](O)[C@H]1O[C@H](O[C@H]2[C@H](O[C@@H]3O[C@H](CN)[C@@H](O)[C@H]3O)[C@@H](O)[C@H](N)C[C@@H]2N)[C@H](N)[C@@H](O)[C@@H]1O	Ribosome	10

// below: inhibition requested for another compound
Supply inhibition measured with Ribosome for `NCC[C@H](O)C(=O)N[C@@H]1C[C@H](N)[C@@H](O[C@H]2O[C@H](CO)[C@@H](O)[C@H](O)[C@H]2N)[C@H](O[C@@H]2O[C@H](CN)[C@@H](O)[C@H]2O)[C@H]1O` .
10

====

protocol: Ratio of compound LC50 to geneticin LC50 for HEK293 cells
Format: ADME, cell-based
condition: human
recorded metric: selectivity ratio
Please give the numeric answer without any surrounding text.

Supply recorded selectivity ratio for `C[C@H](O)[C@H]1O[C@H](O[C@H]2[C@H](O[C@@H]3O[C@H](CN)[C@@H](O)[C@H]3O)[C@@H](O)[C@H](NC(=O)[C@@H](O)CCN)C[C@@H]2N)[C@H](N)[C@@H](O)[C@@H]1O` here.
5

====

Test system: Escherichia coli
protocol: Antibacterial activity against Escherichia coli R477-100 by double-microdilution method
Type: functional
recorded metric: MIC (µM)
Answer format: numeric, µM implied, no suffix.

Use these answered entries as a reference point.
cpd smiles	assayed system	recorded metric	test result
NC[C@H]1O[C@@H](O[C@@H]2[C@@H](O)[C@H](N)C[C@H](N)[C@H]2O[C@H]2O[C@H](CO)[C@@H](O)[C@H](O)[C@H]2N)[C@H](O)[C@@H]1O	Escherichia coli	MIC	790
CN[C@@H]1[C@@H](O)[C@@H](O[C@@H]2[C@@H](O)[C@H](O[C@H]3O[C@H]([C@@H](C)O)[C@@H](O)[C@H](O)[C@H]3N)[C@@H](N)C[C@H]2N)OC[C@]1(C)O	Escherichia coli	MIC	9

Supply recorded MIC for `C[C@H](O)[C@H]1O[C@H](O[C@H]2[C@H](O[C@@H]3O[C@H](CN)[C@@H](O)[C@H]3O)[C@@H](O)[C@H](NC(=O)[C@@H](O)CCN)C[C@@H]2N)[C@H](N)[C@@H](O)[C@@H]1O` here.
556

Supply recorded MIC for `NCC[C@H](O)C(=O)N[C@@H]1C[C@H](N)[C@@H](O[C@H]2O[C@H](CO)[C@@H](O)[C@H](O)[C@H]2N)[C@H](O[C@@H]2O[C@H](CN)[C@@H](O)[C@H]2O)[C@H]1O` here.
588
